biological target: human S1P1 receptor (Homo sapiens, UniProt P21453); construct: expressed in transfected cells; membranes used; assay: GTP γ35S binding assay for S1P1 activity; assay type: biochemical; settings: membranes of cells stably expressing the S1P1 receptor, test compound 0.08 to 5,000 nM, read-out: S1P1 EC50 (nM) % inhibition
Sequence (P21453 whole entry): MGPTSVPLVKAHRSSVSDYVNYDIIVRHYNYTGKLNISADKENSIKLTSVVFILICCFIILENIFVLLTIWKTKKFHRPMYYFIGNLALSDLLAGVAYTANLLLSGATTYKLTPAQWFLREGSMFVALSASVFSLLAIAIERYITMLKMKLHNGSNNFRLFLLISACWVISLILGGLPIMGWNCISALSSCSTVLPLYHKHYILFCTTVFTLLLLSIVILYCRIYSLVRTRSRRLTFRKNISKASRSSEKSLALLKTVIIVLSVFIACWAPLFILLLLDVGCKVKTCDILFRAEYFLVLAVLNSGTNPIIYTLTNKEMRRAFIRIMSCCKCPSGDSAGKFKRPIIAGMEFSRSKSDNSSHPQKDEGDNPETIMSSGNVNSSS
readout_name: EC50 (nM)
# value in nM; strip the unit string

Prompt line: Recorded EC50 of Cc1ccc(-c2nnc(SC(C)c3ccc(CN4CC(C(=O)O)C4)cc3)o2)cc1C (stereo not shown) [Compound 1] , please.
Response line: 22.9
